Assay: In vivo intravenous administration test of milnacipran hydrochloride (Test Example 2)
Design: species or system Wistar male rats
Details: male, Wistar, rat, in vivo, iv, 20 mg/kg
Structures can show the parent of a compound that is named as a salt.
MEASURE_NAME: Vd (L)
Numbers only, in L.

-- ask Name the recorded Vd for CCN(CC)C(=O)C1(c2ccccc2)CC1CN (racemic) [milnacipran hydrochloride] .
-- reply 0.123

###

Experiment: Evaluation of transfer of milnacipran hydrochloride to central nerve system, CSF concentration (Test Example 4)
Set-up: species or system Wistar male rats
Settings: male, Wistar, in vivo, inhaled or intranasal; rat CSF; i.n. 20 mg/kg; read-out: Cmax (maximum CSF concentration)
Counter-ions that a name gives are not always drawn.
MEASURE_NAME: Cmax (ng/mL)
Numbers only, in ng/mL.

-- ask Name the recorded Cmax for CCN(CC)C(=O)C1(c2ccccc2)CC1CN (racemic) [milnacipran hydrochloride] .
-- reply 4020
